# protocol-details: Effect on body temperature in Swiss Albino mouse assessed as rectal body temperature at 10 mg/kg, ip measured after 30 mins by thermometer (reference value: 0.16 to 0.33 degreeC)
# Type: organism-based
# condition-context: in vivo, 0.5 h
experimental-endpoint: deltaT (°C)
One number for each entry, in °C.

Some molecules with recorded deltaT:
COc1cccc(CN2C3CCC2CC(NC(=O)c2ccc4ccccc4c2)C3)c1 (stereo not drawn) ... -0.03
COc1ccccc1CN1C2CCC1CC(NC(=O)c1ccc3ccccc3c1)C2 (stereo not drawn) ... 0.23
O=C(NC1CC2CCC(C1)N2Cc1ccc(F)cc1)c1ccc2ccccc2c1 (stereo not drawn) ... -0.17
O=C(NC1CC2CCC(C1)N2Cc1ccccc1Cl)c1ccc2ccccc2c1 (stereo not drawn) ... 0
O=C(NC1CC2CCC(C1)N2Cc1cccc(Br)c1)c1ccc2ccccc2c1 (stereo not drawn) ... -0.2

Consider the following items and state reported deltaT for each.
1. O=C(NC1CC2CCC(C1)N2Cc1cccc(F)c1)c1ccc2ccccc2c1 (stereo not drawn)
2. O=C(NC1CC2CCC(C1)N2Cc1cccc(Cl)c1)c1ccc2ccccc2c1 (stereo not drawn)
3. Cc1cccc(CN2C3CCC2CC(NC(=O)c2ccc4ccccc4c2)C3)c1 (stereo not drawn)

OUTPUT:
1. -0.17
2. 0.17
3. -0.02

---

Could you please report measured Activity for the items listed next?
# System: Mus musculus
# protocol-details: Antipsychotic activity Swiss Albino mouse assessed as inhibition of DOI-induced head twitching by measuring number of episodes at 2.5 mg/kg, ip administered 30 mins prior to DOI stimulation (reference value: 19.63 to 19.88)
# Type: functional
# condition-context: 0.5 h
Answers are plain numbers.

Recorded Activity, per entry:
COc1ccccc1CN1C2CCC1CC(NC(=O)c1ccc3ccccc3c1)C2 (stereo not drawn) ... 16.25
O=C(NC1CC2CCC(C1)N2Cc1cccc(Br)c1)c1ccc2ccccc2c1 (stereo not drawn) ... 14.5
O=C(NC1CC2CCC(C1)N2Cc1ccc(F)cc1)c1ccc2ccccc2c1 (stereo not drawn) ... 5.75
O=C(NC1CC2CCC(C1)N2Cc1cccc(Cl)c1)c1ccc2ccccc2c1 (stereo not drawn) ... 17.25
Cc1cccc(CN2C3CCC2CC(NC(=O)c2ccc4ccccc4c2)C3)c1 (stereo not drawn) ... 13

Record Activity for all entries; do not skip any.
1. O=C(NC1CC2CCC(C1)N2Cc1ccccc1Cl)c1ccc2ccccc2c1 (stereo not drawn)
2. COc1cccc(CN2C3CCC2CC(NC(=O)c2ccc4ccccc4c2)C3)c1 (stereo not drawn)
3. O=C(NC1CC2CCC(C1)N2Cc1cccc(F)c1)c1ccc2ccccc2c1 (stereo not drawn)

OUTPUT:
[20, 16.63, 11.38]

---

Observed log10(Ki), system 5-hydroxytryptamine receptor 1A (Rattus norvegicus, UniProt P19327).
Values are log10 of Ki in µM.

O=C(NC1CC2CCC(C1)N2Cc1ccc(Br)cc1)c1ccc2ccccc2c1 (stereo not drawn) ... -0.64
O=C(NC1CC2CCC(C1)N2Cc1ccccc1C(F)(F)F)c1ccc2ccccc2c1 (stereo not drawn) ... -0.32
COc1cc(C(=O)NC2CC3CCC(C2)N3Cc2ccccc2)nc2ccccc12 (stereo not drawn) ... -1.52
O=C(NC1CC2CCC(C1)N2Cc1cccc(Cl)c1)c1ccc2ccccc2c1 (stereo not drawn) ... -0.53
O=C(NC1CC2CCC(C1)N2Cc1ccccn1)c1ccc2ccccc2c1 (stereo not drawn) ... -0.50

Please state, for each entry, its recorded log10(Ki).
1. O=C(NC1CC2CCC(C1)N2Cc1cccnc1)c1ccc2ccccc2c1 (stereo not drawn)
2. COc1ccccc1CN1C2CCC1CC(NC(=O)c1ccc3ccccc3c1)C2 (stereo not drawn)
3. O=C(NC1CC2CCC(C1)N2Cc1ccncc1)c1ccc2ccccc2c1 (stereo not drawn)
4. O=C(NC1CC2CCC(C1)N2Cc1ccc(F)cc1)c1ccc2ccccc2c1 (stereo not drawn)
5. O=C(NC1CC2CCC(C1)N2Cc1ccc(C(F)(F)F)cc1)c1ccc2ccccc2c1 (stereo not drawn)
6. Cc1cccc(CN2C3CCC2CC(NC(=O)c2ccc4ccccc4c2)C3)c1 (stereo not drawn)

OUTPUT:
[-0.31, -1.08, 0.36, -0.66, 0.30, -0.74]

Go through the items and report each one's log10(Ki).
1. O=C(NC1CC2CCC(C1)N2Cc1cccc(F)c1)c1ccc2ccccc2c1 (stereo not drawn)
2. Cc1ccccc1CN1C2CCC1CC(NC(=O)c1ccc3ccccc3c1)C2 (stereo not drawn)
3. O=C(NC1CC2CCC(C1)N2Cc1cccc(C(F)(F)F)c1)c1ccc2ccccc2c1 (stereo not drawn)
4. Cc1ccc(CN2C3CCC2CC(NC(=O)c2ccc4ccccc4c2)C3)cc1 (stereo not drawn)
5. COc1ccc(CN2C3CCC2CC(NC(=O)c2ccc4ccccc4c2)C3)cc1 (stereo not drawn)
6. O=C(NC1CC2CCC(C1)N2Cc1ccc(Cl)cc1)c1ccc2ccccc2c1 (stereo not drawn)
7. O=C(NC1CC2CCC(C1)N2Cc1cccc(Br)c1)c1ccc2ccccc2c1 (stereo not drawn)
8. O=C(NC1CC2CCC(C1)N2Cc1ccccc1Br)c1ccc2ccccc2c1 (stereo not drawn)

OUTPUT:
1. -0.68
2. -0.71
3. -0.89
4. -0.14
5. 0.41
6. 0.40
7. -0.70
8. -0.71

Hi team, please reply with log10(Ki) for each item in this list.
1. O=C(NC1CC2CCC(C1)N2Cc1ccccc1Cl)c1ccc2ccccc2c1 (stereo not drawn)
2. O=C(NC1CC2CCC(C1)N2Cc1ccccc1F)c1ccc2ccccc2c1 (stereo not drawn)
3. O=C(NC1CC2CCC(C1)N2Cc1ccccc1)c1ccc2ccccc2n1 (stereo not drawn)
4. COc1cccc(CN2C3CCC2CC(NC(=O)c2ccc4ccccc4c2)C3)c1 (stereo not drawn)

OUTPUT:
[-0.80, -0.44, -1.20, -0.67]

---

# tested-on: D(2) dopamine receptor (Rattus norvegicus)
# Sequence (P61169 whole entry): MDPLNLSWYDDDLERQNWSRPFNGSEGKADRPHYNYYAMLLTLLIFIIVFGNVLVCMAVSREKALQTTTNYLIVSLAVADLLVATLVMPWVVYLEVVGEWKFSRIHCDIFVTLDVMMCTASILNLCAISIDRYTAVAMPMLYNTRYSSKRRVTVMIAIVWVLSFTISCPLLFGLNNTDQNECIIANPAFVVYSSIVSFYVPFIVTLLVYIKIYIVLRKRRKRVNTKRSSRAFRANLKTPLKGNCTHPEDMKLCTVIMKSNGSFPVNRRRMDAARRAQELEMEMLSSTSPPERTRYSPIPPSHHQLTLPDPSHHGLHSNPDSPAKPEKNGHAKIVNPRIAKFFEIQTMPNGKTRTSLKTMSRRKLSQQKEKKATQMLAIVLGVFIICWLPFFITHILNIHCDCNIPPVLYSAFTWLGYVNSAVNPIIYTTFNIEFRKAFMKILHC
# protocol-details: Displacement of [3H] Spiperone from rat striatum dopamine D2 receptor measured after 30 mins by liquid scintillation counter method
Please provide measured Ki for the entries that follow.
Give bare numbers, in nM.

Worked examples, 10 molecules total:
O=C(NC1CC2CCC(C1)N2Cc1ccc(C(F)(F)F)cc1)c1ccc2ccccc2c1 (stereo not drawn) ... 629
O=C(NC1CC2CCC(C1)N2Cc1ccccc1Cl)c1ccc2ccccc2c1 (stereo not drawn) ... 34.8
O=C(NC1CC2CCC(C1)N2Cc1ccncc1)c1ccc2ccccc2c1 (stereo not drawn) ... 2700
O=C(NC1CC2CCC(C1)N2Cc1ccccc1)c1ccc2ccccc2n1 (stereo not drawn) ... 589
O=C(NC1CC2CCC(C1)N2Cc1ccc(Br)cc1)c1ccc2ccccc2c1 (stereo not drawn) ... 4.5
COc1ccc(CN2C3CCC2CC(NC(=O)c2ccc4ccccc4c2)C3)cc1 (stereo not drawn) ... 0.6
O=C(NC1CC2CCC(C1)N2Cc1cccc(Cl)c1)c1ccc2ccccc2c1 (stereo not drawn) ... 3.6
O=C(NC1CC2CCC(C1)N2Cc1cccc(F)c1)c1ccc2ccccc2c1 (stereo not drawn) ... 214
O=C(NC1CC2CCC(C1)N2Cc1ccc(F)cc1)c1ccc2ccccc2c1 (stereo not drawn) ... 137
COc1ccccc1CN1C2CCC1CC(NC(=O)c1ccc3ccccc3c1)C2 (stereo not drawn) ... 76.9

# return Ki for each item in the list
1. Cc1ccc(CN2C3CCC2CC(NC(=O)c2ccc4ccccc4c2)C3)cc1 (stereo not drawn)
2. O=C(NC1CC2CCC(C1)N2Cc1ccccc1F)c1ccc2ccccc2c1 (stereo not drawn)
3. O=C(NC1CC2CCC(C1)N2Cc1cccc(Br)c1)c1ccc2ccccc2c1 (stereo not drawn)

OUTPUT:
1. 0.4
2. 715
3. 11.6

---

Exercise: state measured deltaT for each of the molecules provided.
# protocol-details: Effect on body temperature in Swiss Albino mouse assessed as rectal body temperature at 20 mg/kg, ip measured after 120 mins by thermometer (reference value: 0.15 to 1.11 degreeC)
# Type: ADME, organism-based
# condition-context: in vivo, 2 h
Answers are plain numbers, in °C.

Below, 2 molecules whose answers are already recorded.
Cc1cccc(CN2C3CCC2CC(NC(=O)c2ccc4ccccc4c2)C3)c1 (stereo not drawn) ... 0.24
COc1cccc(CN2C3CCC2CC(NC(=O)c2ccc4ccccc4c2)C3)c1 (stereo not drawn) ... 1.26

With those in mind, consider the next molecule.
INPUT: So what does the record say about deltaT for O=C(NC1CC2CCC(C1)N2Cc1cccc(Cl)c1)c1ccc2ccccc2c1 (stereo not drawn) ?
OUTPUT: 1

---

# protocol-details: Effect on body temperature in Swiss Albino mouse assessed as rectal body temperature at 10 mg/kg, ip measured after 90 mins by thermometer (reference value: 0.18 to 0.63 degreeC)
# Type: ADME, organism-based
# condition-context: in vivo, 1.5 h
# if measured deltaT < 0.6 °C: y  # else: n

O=C(NC1CC2CCC(C1)N2Cc1cccc(F)c1)c1ccc2ccccc2c1 (stereo not drawn) ... y
Cc1cccc(CN2C3CCC2CC(NC(=O)c2ccc4ccccc4c2)C3)c1 (stereo not drawn) ... y
COc1ccccc1CN1C2CCC1CC(NC(=O)c1ccc3ccccc3c1)C2 (stereo not drawn) ... n
O=C(NC1CC2CCC(C1)N2Cc1cccc(Cl)c1)c1ccc2ccccc2c1 (stereo not drawn) ... n
O=C(NC1CC2CCC(C1)N2Cc1cccc(Br)c1)c1ccc2ccccc2c1 (stereo not drawn) ... n
O=C(NC1CC2CCC(C1)N2Cc1ccccc1Cl)c1ccc2ccccc2c1 (stereo not drawn) ... n
O=C(NC1CC2CCC(C1)N2Cc1ccc(F)cc1)c1ccc2ccccc2c1 (stereo not drawn) ... y

Attention now turns to another entry.
INPUT: Is it true that deltaT reported for COc1cccc(CN2C3CCC2CC(NC(=O)c2ccc4ccccc4c2)C3)c1 (stereo not drawn) is less than 0.6 °C?
OUTPUT: y
